# system-tested: PDHK2 (recombinant pyruvate dehydrogenase kinase 2) (Homo sapiens, UniProt Q15119)
# assay-name: Fast-TR FRET kinase IMAP assay, ATP dependence of the kinase reaction
# conditions-used: 1 μM Alexa-peptide in the kinase reaction; concentration in the kinase reaction (50 times less in readout); FRET readout 730 (30) nm; FIG. 9; read-out: EC50 of ATP dose response curve
pEC50: −log10 of the molar value.
reported-endpoint: pEC50

# compound, reported-endpoint, numeric-readout
rows = [
    ("Nc1ncnc2c1ncn2[C@@H]1O[C@H](COP(=O)(O)OP(=O)(O)OP(=O)(O)O)[C@@H](O)[C@H]1O [ATP]", "pEC50", 5.44),
]
